target: N370S glucocerebrosidase (GC) in tissue homogenate (Homo sapiens, UniProt P04062, N409S); conditions: "blue" GC enzyme assay, tissue homogenate
Sequence (P04062 40-536 N409S): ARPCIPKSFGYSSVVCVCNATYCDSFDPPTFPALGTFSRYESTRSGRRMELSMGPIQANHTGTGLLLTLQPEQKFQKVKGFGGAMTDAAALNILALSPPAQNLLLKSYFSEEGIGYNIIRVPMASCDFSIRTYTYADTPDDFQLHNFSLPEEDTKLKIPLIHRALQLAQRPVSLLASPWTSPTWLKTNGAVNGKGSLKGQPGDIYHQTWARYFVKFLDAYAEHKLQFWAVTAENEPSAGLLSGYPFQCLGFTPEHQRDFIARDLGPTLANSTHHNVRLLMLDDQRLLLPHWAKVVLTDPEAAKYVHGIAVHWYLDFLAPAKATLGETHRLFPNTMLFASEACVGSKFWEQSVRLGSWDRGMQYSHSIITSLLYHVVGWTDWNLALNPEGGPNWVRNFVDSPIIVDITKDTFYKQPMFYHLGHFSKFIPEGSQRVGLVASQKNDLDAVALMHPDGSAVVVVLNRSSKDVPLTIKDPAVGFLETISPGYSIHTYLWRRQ
observable: pIC50
Worth noting: pIC50 values are minus log10 of concentrations stated in mol/L.

Recorded pIC50 for Cc1ccc(S(=O)(=O)N2CCN(c3nc(-c4cccs4)nc4ccccc34)CC2)cc1 [Compound 26ad] with N370S glucocerebrosidase (GC) in tissue homogenate (Homo sapiens, UniProt P04062, N409S), please?
6.49

###

Readings of reduction of activity (fold, relative to 26ad) for the listed compounds
target: N370S glucocerebrosidase (GC) in tissue homogenate (Homo sapiens, UniProt P04062, N409S); type: biochemical; conditions: N370S tissue homogenate AC50 compared with parent quinazoline 26ad
Write the answer as a number in times, unit excluded.

lineNotation: Cc1ccc(S(=O)(=O)N2CCN(c3nc(-c4cccs4)nc(C)c3C)CC2)cc1
experimentalValue: 10

Field: reduction of activity (fold, relative to 26ad) (N370S glucocerebrosidase (GC) in tissue homogenate (Homo sapiens, UniProt P04062, N409S)). Entry: Cc1ccc(S(=O)(=O)N2CCN(c3ccnc(-c4cccs4)n3)CC2)cc1
32
